subject-of-test: T1, purified human CD117 ectodomain (R&D Systems #332-SR) (human, UniProt P10721 26-524)
T1 construct: extracellular domain; Bought protein; also called c-kit; purified recombinant human CD117 ectodomain
test: BLI, purified IgG on sensor, soluble ectodomain; apparent monovalent
reported-endpoint: koff (s⁻¹)
One number for each entry, in s⁻¹.

HC-2/LC-2 (Ab2) (antibody, IgG1, V domains shown, Purified IgG; also called 002) VH: QVQLVQSGAAVKKPGESLKISCKGSGYRFTTYWIGWVRQMPGKGLEWMGIIYPGDSDTRYSPSFQGQVTISAGKSISTAYLQWSSLKASDTAMYYCARHGRGYNGYEGAFDIWGQGTMVTVSS VL: DIQLTQSPSSLSASVGDRVTITCRASQGIRTDLGWYQQKPGKAPKLLIYDASSLESGVPSRFSGSGSGTDFTLTISSLQPEDFATYYCQQFNSYPLTFGGGTKVEIK = 0.00027

Here is the next item to consider.
koff recorded for this binder, HC-28/LC-28 (Ab28) (antibody, IgG1, V domains shown, From rat immunization/hybridoma; purified IgG in BLI; also called 028) VH: EVQLQQYGAELGKPGTSVRLSCKVSGYKIRNTYIHWVNQRPGKGLEWIGRIDPANGNTIYAEKFKSKVTLTADTSSNTAYMQLSQLKSDDTALYFCAMNYEGYEDYWGQGVMVTVSS VL: DIQMTQSPSFLSASVGDSVTINCKASQNINKYLNWYQQKLGEAPKRLIHKTNSLQPGFPSRFSGSGSGTDYTLTISSLQPEDVAAYFCFQYNSGFTFGAGTKLELK , is 0.000368
